experiment_description: p53 small molecule agonists, cell-based qHTS assay with rat liver microsomes: qHTS cell viability counter screen (AID 1963580); note: % is set by controls: 0 for no effect and ±100 for the full control effect; nearly all actives have a fitted effect of over 45% in size
measurement_context: p53RE-bla HCT-116 + rat microsomes, ATP viability, 16 h; series mostly up to 66 µM
Inconclusive results are not listed. The source made the active and inactive calls. Calls come from the whole dose curve.
metric_name: activity change, negative = cytotoxicity

compound=CC(C)(C)c1cc(Cc2cc(C(C)(C)C)c(O)c(C(C)(C)C)c2)cc(C(C)(C)C)c1O reported_value=inactive
compound=FC(F)(F)c1ccccc1-n1ccnc1 reported_value=inactive
compound="Cc1cc(C)cc(OCC2CNC(=O)O2)c1 (stereo not drawn)" reported_value=inactive
compound=CCCCCCCCCCCC(=O)OC[C@@H](O)[C@H]1OC[C@H](OCCO)[C@H]1OCCO reported_value=inactive
compound=C[N+](C)(C)CCO reported_value=inactive
compound=CC1=CC[C@@]23C[C@@H]1C(C)(C)[C@@H]2CC[C@H]3C reported_value=inactive

Continue with the compound presented below.
For the compound COCCOCCOCCOCCOCCO , give its reported activity change, negative = cytotoxicity.
inactive

----------
experiment_description: Nuclear factor erythroid 2-related factor 2/antioxidant responsive element (Nrf2/ARE) small molecule agonists: luciferase reporter gene qHTS assay in human keratinocytes (AID 1919969); note: nearly all actives have a fitted effect of over 35% in size
measurement_context: KeratinoSens HaCaT ARE-luciferase, luminescence, 24 h; series mostly up to 92.4 µM
Results filed as inconclusive are left out. Calls of active or inactive are those of the source. The call rests on the fitted dose curve.
// one of active, inactive, no free text

compound=NCCOCCN category=inactive
compound="Cc1c(C)c2c(c(C)c1O)CCC(C)(COc1ccc(CC3SC(=O)NC3=O)cc1)O2 (stereo not given)" category=inactive
compound="CC(C)=CCCC(C)CC=O (stereo not given)" category=inactive
compound=CCCCCCCCCC/C=C/C#N category=inactive
compound=CC1=CC(=O)c2ccccc2C1=O category=active

For COc1c2ccoc2cc2oc(=O)ccc12 , which call appears in the assay record?
inactive

For NCCC(O)(P(=O)(O)O)P(=O)(O)O , which call appears in the assay record?
inactive

For COc1ccccc1/C=C/C=O , which call appears in the assay record?
active

For OC[C@H]1O[C@@](CO)(O[C@H]2O[C@H](CO)[C@@H](O)[C@H](O)[C@H]2O)[C@@H](O)[C@@H]1O , which call appears in the assay record?
inactive

For Cc1ccc2c(c1)OCC(=O)CO2 , which call appears in the assay record?
inactive

----------
target_system: KiSS-1 receptor (Homo sapiens)
experiment_description: Human kisspeptin (KISS1R) small molecule agonists, calcium flux assay in KISS1R-HEK293 cells (AID 1920064); note: % is set by controls: 0 for no effect and ±100 for the full control effect
measurement_context: KISS1R-HEK293, calcium flux fluorescence, agonist; series mostly up to 76.8 µM
Calls of active or inactive are those of the source. Calls follow the shape of the dose curve; as a rule, active = well fitted activation curve with a large enough effect in the repeat runs; inconclusive = weak or mixed curves; inactive = flat fitted curve, though single readings scatter.
metric_name: activation

// below: answered compounds
compound=Cc1ccc(O)c([N+](=O)[O-])c1 target_system="KiSS-1 receptor (Homo sapiens)" reported_value=inactive
compound=O=C(O)/C=C/c1ccccc1 target_system="KiSS-1 receptor (Homo sapiens)" reported_value=inactive
compound=COc1cccc(Br)c1 target_system="KiSS-1 receptor (Homo sapiens)" reported_value=inactive
compound=NC(=O)c1ccc([N+](=O)[O-])cc1 target_system="KiSS-1 receptor (Homo sapiens)" reported_value=inactive
compound=O=C(O)c1ccc(OCCCOc2ccc(C(=O)O)cc2)cc1 target_system="KiSS-1 receptor (Homo sapiens)" reported_value=inactive

Specify activation for CC(CCO)CCc1ccccc1 (stereo not drawn) , system KiSS-1 receptor (Homo sapiens).
inactive

Specify activation for CCCOC(C)=O , system KiSS-1 receptor (Homo sapiens).
inactive

Specify activation for CN(C)c1ccc(C(=N)c2ccc(N(C)C)cc2)cc1 , system KiSS-1 receptor (Homo sapiens).
inactive

----------
experiment_description: p53 small molecule agonists, cell-based qHTS assay with human liver microsomes: qHTS cell viability counter screen (AID 1963579); note: % is set by controls: 0 for no effect and ±100 for the full control effect; nearly all actives have a fitted effect of over 45% in size
measurement_context: p53RE-bla HCT-116 viability, ATP luminescence, 16 h, HLM; series mostly up to 66 µM
Records with an inconclusive call do not appear. Calls of active or inactive are those of the source. The call rests on the fitted dose curve.
metric_name: activity change, negative = cytotoxicity

compound=c1ccc(CCc2ccccc2)cc1 reported_value=inactive
compound=C/C=C/C(=O)O reported_value=inactive
compound=CCCCCCCC(=O)[O-].CCCCCCCC(=O)[O-].[Zn+2] reported_value=inactive
compound=CCCCc1ncc(/C=C(\Cc2cccs2)C(=O)O)n1Cc1ccc(C(=O)O)cc1 reported_value=inactive
compound=O=C(C(=O)c1ccco1)c1ccco1 reported_value=inactive

For the compound CC(S)C(=O)NCC(=O)O (stereo unspecified) , give its reported activity change, negative = cytotoxicity.
inactive

For the compound COC(=O)Nc1ccc(Cl)c(Cl)c1 , give its reported activity change, negative = cytotoxicity.
inactive

For the compound CCC(COC(=O)CCS)(COC(=O)CCS)COC(=O)CCS , give its reported activity change, negative = cytotoxicity.
inactive

For the compound N#Cc1cc(NC(=O)C(=O)O)c(Cl)c(NC(=O)C(=O)O)c1 , give its reported activity change, negative = cytotoxicity.
inactive

----------
target_system: Muscarinic acetylcholine receptor M1 (Homo sapiens) (UniProt P11229)
Sequence (P11229 whole entry, looked up): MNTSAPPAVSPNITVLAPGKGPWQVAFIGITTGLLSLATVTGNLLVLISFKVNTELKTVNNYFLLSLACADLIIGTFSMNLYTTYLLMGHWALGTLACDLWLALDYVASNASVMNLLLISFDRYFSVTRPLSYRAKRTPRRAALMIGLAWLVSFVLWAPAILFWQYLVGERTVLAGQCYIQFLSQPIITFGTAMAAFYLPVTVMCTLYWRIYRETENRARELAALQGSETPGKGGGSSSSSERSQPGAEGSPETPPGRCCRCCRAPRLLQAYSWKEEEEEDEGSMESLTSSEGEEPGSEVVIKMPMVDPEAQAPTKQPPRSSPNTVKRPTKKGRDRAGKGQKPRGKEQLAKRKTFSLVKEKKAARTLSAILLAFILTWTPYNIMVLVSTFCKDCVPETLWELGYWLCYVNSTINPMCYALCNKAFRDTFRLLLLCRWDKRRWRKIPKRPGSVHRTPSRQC
experiment_description: Cholinergic receptor muscarinic 1 (CHRM1) small molecule antagonists, cell-based qHTS assay (AID 1963588); note: % is set by controls: 0 for no effect and ±100 for the full control effect; nearly all actives have a fitted effect of over 40% in size
measurement_context: CHRM1-CHO antagonist mode, calcium flux fluorescence; series mostly up to 61.5 µM
Results filed as inconclusive are left out. Calls of active or inactive are those of the source. The call rests on the fitted dose curve.
metric_name: activity, negative = inhibition

// below: answered compounds
compound="CC1CCC(C(C)C)C(O)C1 (stereo unspecified)" reported_value=inactive
compound="C[C@@H]1NC(=O)[C@@H](N)CNC(=O)[C@H](C2CCNC(N)=N2)NC(=O)/C(=C/NC(N)=O)NC(=O)[C@H](CNC(=O)C[C@@H](N)CCCN)NC1=O (stereo partly specified)" reported_value="-3.02% [at 0.232 µM] (inactive)"
compound="CC1=CCC(O)(C(C)C)CC1 (stereo unspecified)" reported_value=inactive
compound=Cc1cccc2c1ccc1ccccc12 reported_value=inactive

For the compound Cc1ccccc1C(=O)N1CC/C(=N\OS(=O)(=O)O)c2ccc(Cl)cc21 , give its reported activity, negative = inhibition.
inactive

For the compound C=CC(C)CCC=C(C)C (stereo unspecified) , give its reported activity, negative = inhibition.
inactive

----------
target_system: 5-hydroxytryptamine receptor 2A (Homo sapiens)
experiment_description: 5-hydroxytryptamine receptor 2A (HTR2A) small molecule antagonists, cell-based qHTS assay (AID 1963586); note: % is set by controls: 0 for no effect and ±100 for the full control effect; nearly all actives have a fitted effect of over 45% in size
measurement_context: HTR2A-CHO cells, DOI-induced calcium flux, fluorescence; series mostly up to 61.5 µM
Inconclusive results are not listed. Calls of active or inactive are those of the source. The call rests on the fitted dose curve.
metric_name: activity, negative = inhibition

compound=Nc1c(Br)cc([N+](=O)[O-])cc1Br reported_value=inactive
compound="CC(CCC(=O)O)C(=O)O (stereo not drawn)" reported_value=inactive
compound=O=C(O)[C@H](O)[C@@H](O)[C@H](O[C@@H]1O[C@H](CO)[C@H](O)[C@H](O)[C@H]1O)[C@H](O)CO reported_value=inactive
compound=CC(C)(C)c1cc(Cc2cc(C(C)(C)C)c(O)c(C(C)(C)C)c2)cc(C(C)(C)C)c1O reported_value=inactive
compound=COc1cc(C(=S)N2CCOCC2)cc(OC)c1OC reported_value=inactive

For the compound Nc1ccc([N+](=O)[O-])c(C(F)(F)F)c1 , give its reported activity, negative = inhibition.
inactive

For the compound C=CCOCC(O)CO (stereo not drawn) , give its reported activity, negative = inhibition.
inactive

For the compound CC1=CC(C)C(C=O)CC1 (stereo not drawn) , give its reported activity, negative = inhibition.
inactive

For the compound O=[N+]([O-])c1ccc2c(c1)Cc1ccccc1-2 , give its reported activity, negative = inhibition.
inactive

For the compound N[C@@H](Cc1c[nH]c2ccccc12)C(=O)O , give its reported activity, negative = inhibition.
inactive

For the compound Cc1ccc(Nc2ccc(O)c3c2C(=O)c2ccccc2C3=O)cc1 , give its reported activity, negative = inhibition.
inactive

For the compound CC(=O)[O][Al][O]C(C)=O , give its reported activity, negative = inhibition.
inactive

For the compound CC(O)C(CO)C(C)O (stereo not drawn) , give its reported activity, negative = inhibition.
inactive

For the compound COc1ccc2cc1Oc1cc3c(cc1OC)CC[N+](C)(C)[C@H]3Cc1ccc(cc1)Oc1c(OC)c(OC)cc3c1[C@@H](C2)[N+](C)(C)CC3 , give its reported activity, negative = inhibition.
inactive

For the compound O=C1Nc2ccccc2C1(c1ccc(O)cc1)c1ccc(O)cc1 , give its reported activity, negative = inhibition.
inactive

For the compound N[C@@H](CCC(=O)Nc1ccc([N+](=O)[O-])cc1)C(=O)O , give its reported activity, negative = inhibition.
inactive

For the compound CCC(C)(C)CC , give its reported activity, negative = inhibition.
inactive

For the compound CCCC(C)CCC(C)=O (stereo not drawn) , give its reported activity, negative = inhibition.
inactive

For the compound CCC(OCCCOC)OC(C)=O (stereo not drawn) , give its reported activity, negative = inhibition.
inactive
